Recorded values, source patent US20170349532A1.

# METHOD SUMMARY: Average particle diameter of preparation (Zetasizer Nano ZS)
# Assay type: physicochemical
# MEASUREMENT CONTEXT: average particle diameter of cationic lipid/nucleic acid complex; Example 118 preparation: compound/PEG-DMPE Na/DSPC/cholesterol with apo-b siRNA
QUANTITY KIND: Particle diameter of Preparetion (nm)
Form entry: value (nm) — number only.

Study these solved cases before continuing.
MOLECULE | UNIT OF MEASUREMENT | MEASUREMENT
CCCCCCCCCCC/C=C\CCCCCOCCN(C)CCOCCCCC/C=C\CCCCCCCCCCC [Compound 36] | nm | 137.2
CCCCC/C=C\C/C=C\CCCCCCCCO[C@H]1CNC[C@@H]1OCCCCCCCC/C=C\C/C=C\CCCCC (stereo in doubt) [Compound 43] | nm | 150.0

Attention now turns to another entry.
Any idea what its Particle diameter of Preparetion is? The molecule is CCCCCCCC/C=C\CCCCCCCCOCC[N+](C)(C)CCOCCCCCCCC/C=C\CCCCCCCC.[Cl-] [Compound 80] 110.3
